Reference for the values: patent US11965039B2

- testTarget: Human C3 (Complement tech cat #A113c) (human, UniProt P01024 23-1663)
- Sequence (P01024 23-1663 limits assumed): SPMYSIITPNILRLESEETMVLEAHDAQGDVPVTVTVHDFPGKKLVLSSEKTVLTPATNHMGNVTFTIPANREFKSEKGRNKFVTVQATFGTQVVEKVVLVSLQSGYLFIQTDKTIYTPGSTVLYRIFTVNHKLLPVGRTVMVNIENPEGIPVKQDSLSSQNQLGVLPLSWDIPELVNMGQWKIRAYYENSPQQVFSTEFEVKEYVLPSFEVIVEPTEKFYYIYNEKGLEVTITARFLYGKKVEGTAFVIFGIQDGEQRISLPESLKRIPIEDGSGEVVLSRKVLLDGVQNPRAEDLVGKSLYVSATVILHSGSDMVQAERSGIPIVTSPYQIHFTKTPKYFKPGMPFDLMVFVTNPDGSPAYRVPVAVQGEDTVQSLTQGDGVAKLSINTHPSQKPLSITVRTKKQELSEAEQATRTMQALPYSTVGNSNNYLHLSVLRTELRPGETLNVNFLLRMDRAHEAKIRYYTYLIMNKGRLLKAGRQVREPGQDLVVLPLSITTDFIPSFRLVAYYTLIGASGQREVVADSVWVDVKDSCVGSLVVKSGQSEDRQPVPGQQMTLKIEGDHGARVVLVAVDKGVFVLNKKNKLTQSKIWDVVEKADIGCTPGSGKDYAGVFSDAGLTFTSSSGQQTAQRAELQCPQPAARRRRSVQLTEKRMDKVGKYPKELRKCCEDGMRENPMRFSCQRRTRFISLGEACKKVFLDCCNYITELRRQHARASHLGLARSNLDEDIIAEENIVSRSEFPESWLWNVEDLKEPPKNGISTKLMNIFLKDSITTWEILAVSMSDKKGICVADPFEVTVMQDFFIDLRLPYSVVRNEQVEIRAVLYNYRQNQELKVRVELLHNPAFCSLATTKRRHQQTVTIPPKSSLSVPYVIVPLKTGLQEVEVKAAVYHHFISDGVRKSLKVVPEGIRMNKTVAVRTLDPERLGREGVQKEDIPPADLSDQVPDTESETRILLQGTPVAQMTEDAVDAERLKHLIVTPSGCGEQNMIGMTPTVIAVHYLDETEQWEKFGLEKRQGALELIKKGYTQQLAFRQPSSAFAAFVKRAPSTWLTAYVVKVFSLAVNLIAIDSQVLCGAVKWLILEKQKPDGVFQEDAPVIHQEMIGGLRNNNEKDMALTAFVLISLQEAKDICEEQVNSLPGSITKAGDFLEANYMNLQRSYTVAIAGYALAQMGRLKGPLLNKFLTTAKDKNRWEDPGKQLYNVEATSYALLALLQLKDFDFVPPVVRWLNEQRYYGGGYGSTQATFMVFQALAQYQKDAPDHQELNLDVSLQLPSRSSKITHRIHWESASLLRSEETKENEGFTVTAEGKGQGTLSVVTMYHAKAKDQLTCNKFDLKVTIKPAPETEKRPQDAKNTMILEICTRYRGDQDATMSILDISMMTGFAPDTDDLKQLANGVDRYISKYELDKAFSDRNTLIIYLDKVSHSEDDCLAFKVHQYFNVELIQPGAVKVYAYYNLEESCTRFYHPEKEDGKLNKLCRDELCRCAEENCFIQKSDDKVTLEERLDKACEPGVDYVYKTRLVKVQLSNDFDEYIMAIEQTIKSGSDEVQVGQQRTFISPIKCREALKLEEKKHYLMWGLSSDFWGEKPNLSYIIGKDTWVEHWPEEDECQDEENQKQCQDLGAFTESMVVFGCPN
- testSummary: cell-based or functional assay
Starred links: 1 amine or outer side, 2 acyl side, 3 side chain; linkers in the order of their positions; H or OH if unused. Positions of bridges follow the written chain, without caps; N, C: chain ends. Non-standard residues stand in square brackets, D forms with d. X1 = K(γGlu-G-γGlu-17-carboxy-heptadecanoyl), O=C(O)CCCCCCCCCCCCCCCCC(=O)N[C@@H](CCC(=O)NCC(=O)N[C@@H](CCC(=O)NCCCC[C@H](N[*:1])C(=O)[*:2])C(=O)O)C(=O)O; Trp(1-Me) = Cn1cc(C[C@H](N)C(=O)O)c2ccccc21; Sar = CNCC(=O)O
Please provide measured inhibition of hemolysis IC50 for the entries that follow.

Use these answered entries as a reference point.
- Ac-SAICIWQDWGEHRCTEG-NH2 (disulfide 4-14; SMILES CC[C@H](C)[C@H](NC(=O)[C@H](C)NC(=O)[C@H](CO)NC(C)=O)C(=O)N[C@H]1CSSC[C@@H](C(=O)N[C@H](C(=O)N[C@@H](CCC(=O)O)C(=O)NCC(N)=O)[C@@H](C)O)NC(=O)[C@H](CCCNC(=N)N)NC(=O)[C@H](Cc2c[nH]cn2)NC(=O)[C@H](CCC(=O)O)NC(=O)CNC(=O)[C@H](Cc2c[nH]c3ccccc23)NC(=O)[C@H](CC(=O)O)NC(=O)[C@H](CCC(N)=O)NC(=O)[C@H](Cc2c[nH]c3ccccc23)NC(=O)[C@H]([C@@H](C)CC)NC1=O) [Compound 42]: < 250 nM
- Ac-SEFCI[Trp(1-Me)]QDWGEHRC[Sar]E-NH2 (disulfide 4-14; SMILES CC[C@H](C)[C@@H]1NC(=O)[C@@H](NC(=O)[C@H](Cc2ccccc2)NC(=O)[C@H](CCC(=O)O)NC(=O)[C@H](CO)NC(C)=O)CSSC[C@@H](C(=O)N(C)CC(=O)N[C@@H](CCC(=O)O)C(N)=O)NC(=O)[C@H](CCCNC(=N)N)NC(=O)[C@H](Cc2c[nH]cn2)NC(=O)[C@H](CCC(=O)O)NC(=O)CNC(=O)[C@H](Cc2c[nH]c3ccccc23)NC(=O)[C@H](CC(=O)O)NC(=O)[C@H](CCC(N)=O)NC(=O)[C@H](Cc2cn(C)c3ccccc23)NC1=O) [Compound 78]: < 100 nM
- Ac-SEFCI[Trp(1-Me)]QDWGEHRCTEGE-{8‑aminooctanoyl-X1-NH2} (disulfide 4-14) [Compound 136]: < 100 nM
- Ac-ICIWQDWGEHRCE-NH2 (disulfide 2-12; SMILES CC[C@H](C)[C@H](NC(C)=O)C(=O)N[C@H]1CSSC[C@@H](C(=O)N[C@@H](CCC(=O)O)C(N)=O)NC(=O)[C@H](CCCNC(=N)N)NC(=O)[C@H](Cc2c[nH]cn2)NC(=O)[C@H](CCC(=O)O)NC(=O)CNC(=O)[C@H](Cc2c[nH]c3ccccc23)NC(=O)[C@H](CC(=O)O)NC(=O)[C@H](CCC(N)=O)NC(=O)[C@H](Cc2c[nH]c3ccccc23)NC(=O)[C@H]([C@@H](C)CC)NC1=O) [Compound 22]: < 100 nM
- Ac-GSAICIWQDWGEHRC[Sar]E-NH2 (disulfide 5-15; SMILES CC[C@H](C)[C@H](NC(=O)[C@H](C)NC(=O)[C@H](CO)NC(=O)CNC(C)=O)C(=O)N[C@H]1CSSC[C@@H](C(=O)N(C)CC(=O)N[C@@H](CCC(=O)O)C(N)=O)NC(=O)[C@H](CCCNC(=N)N)NC(=O)[C@H](Cc2c[nH]cn2)NC(=O)[C@H](CCC(=O)O)NC(=O)CNC(=O)[C@H](Cc2c[nH]c3ccccc23)NC(=O)[C@H](CC(=O)O)NC(=O)[C@H](CCC(N)=O)NC(=O)[C@H](Cc2c[nH]c3ccccc23)NC(=O)[C@H]([C@@H](C)CC)NC1=O) [Compound 40]: < 250 nM

Kindly give each listed record's inhibition of hemolysis IC50.
1. Ac-SEFCI[Trp(1-Me)]QDWGEHRCTEGE-{8‑aminooctanoyl-Glu-X1-NH2} (disulfide 4-14) [Compound 137]
2. Ac-ICIWQKWGAHRCTGAES-NH2 (disulfide 2-12; SMILES CC[C@H](C)[C@H](NC(C)=O)C(=O)N[C@H]1CSSC[C@@H](C(=O)N[C@H](C(=O)NCC(=O)N[C@@H](C)C(=O)N[C@@H](CCC(=O)O)C(=O)N[C@@H](CO)C(N)=O)[C@@H](C)O)NC(=O)[C@H](CCCNC(=N)N)NC(=O)[C@H](Cc2c[nH]cn2)NC(=O)[C@H](C)NC(=O)CNC(=O)[C@H](Cc2c[nH]c3ccccc23)NC(=O)[C@H](CCCCN)NC(=O)[C@H](CCC(N)=O)NC(=O)[C@H](Cc2c[nH]c3ccccc23)NC(=O)[C@H]([C@@H](C)CC)NC1=O) [Compound 8]
3. Ac-ICIWQDWGSHRCT-NH2 (disulfide 2-12; SMILES CC[C@H](C)[C@H](NC(C)=O)C(=O)N[C@H]1CSSC[C@@H](C(=O)N[C@H](C(N)=O)[C@@H](C)O)NC(=O)[C@H](CCCNC(=N)N)NC(=O)[C@H](Cc2c[nH]cn2)NC(=O)[C@H](CO)NC(=O)CNC(=O)[C@H](Cc2c[nH]c3ccccc23)NC(=O)[C@H](CC(=O)O)NC(=O)[C@H](CCC(N)=O)NC(=O)[C@H](Cc2c[nH]c3ccccc23)NC(=O)[C@H]([C@@H](C)CC)NC1=O) [Compound 6]
4. Ac-FCIWQDWGEHRCTGAE-NH2 (disulfide 2-12; SMILES CC[C@H](C)[C@@H]1NC(=O)[C@@H](NC(=O)[C@H](Cc2ccccc2)NC(C)=O)CSSC[C@@H](C(=O)N[C@H](C(=O)NCC(=O)N[C@@H](C)C(=O)N[C@@H](CCC(=O)O)C(N)=O)[C@@H](C)O)NC(=O)[C@H](CCCNC(=N)N)NC(=O)[C@H](Cc2c[nH]cn2)NC(=O)[C@H](CCC(=O)O)NC(=O)CNC(=O)[C@H](Cc2c[nH]c3ccccc23)NC(=O)[C@H](CC(=O)O)NC(=O)[C@H](CCC(N)=O)NC(=O)[C@H](Cc2c[nH]c3ccccc23)NC1=O) [Compound 43]

// result
1: < 100 nM; 2: < 500 nM; 3: < 250 nM; 4: < 100 nM
